- MEASURED ON: CYP3A4 (Homo sapiens)
- Sequence (P08684 whole entry): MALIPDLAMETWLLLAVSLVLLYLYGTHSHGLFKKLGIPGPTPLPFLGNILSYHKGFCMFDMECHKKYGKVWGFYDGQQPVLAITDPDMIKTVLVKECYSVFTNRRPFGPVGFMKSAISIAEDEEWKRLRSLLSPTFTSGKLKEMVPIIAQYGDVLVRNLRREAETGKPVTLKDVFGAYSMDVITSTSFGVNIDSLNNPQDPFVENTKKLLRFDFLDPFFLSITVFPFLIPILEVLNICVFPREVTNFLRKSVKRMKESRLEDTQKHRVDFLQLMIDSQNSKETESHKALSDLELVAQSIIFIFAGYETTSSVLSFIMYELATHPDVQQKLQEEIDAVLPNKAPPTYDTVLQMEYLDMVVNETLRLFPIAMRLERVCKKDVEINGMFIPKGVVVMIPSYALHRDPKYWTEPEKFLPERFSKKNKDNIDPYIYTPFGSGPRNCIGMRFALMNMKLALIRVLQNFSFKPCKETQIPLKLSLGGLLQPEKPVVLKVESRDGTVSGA
- ASSAY TEXT: Inhibition of CYP3A4 (unknown origin) assessed as inhibition of conversion of beetle D-luciferin to D-luciferin at 10 uM by luminescent P450-Glo assay relative to control
- Format: ADME
- MEASUREMENT PARAMETERS: probe beetle D-luciferin
MEASURED METRIC: inhibition at 10 µM (%)

Sample answers from the record:
>>> print(df.to_string())
                                molecule            measured_on      measured_metric  value_measured
0      CCC(C)(C)c1ccc(OCCCCN2CCCCCC2)cc1  CYP3A4 (Homo sapiens)  inhibition at 10 µM               5
1  c1ccc(-c2ccc(OCCCCCCN3CCCCCC3)cc2)cc1  CYP3A4 (Homo sapiens)  inhibition at 10 µM              13
2         CC(C)(C)c1ccc(OCCCN2CCCCC2)cc1  CYP3A4 (Homo sapiens)  inhibition at 10 µM              61
3           Clc1ccc(OCCCCCCN2CCCCCC2)cc1  CYP3A4 (Homo sapiens)  inhibition at 10 µM              23
4       c1ccc2c(OCCCCCCN3CCCCCC3)cccc2c1  CYP3A4 (Homo sapiens)  inhibition at 10 µM              46
5  c1ccc(-c2cccc(OCCCCCCN3CCCCCC3)c2)cc1  CYP3A4 (Homo sapiens)  inhibition at 10 µM              19

(I) CCC(C)(C)c1ccc(OCCCCCCCCN2CCCCCC2)cc1
(II) CCC(C)(C)c1ccc(OCCCN2CCCCCC2)cc1
Field: entry with larger inhibition at 10 µM (options I / II ). Write down the label of the entry you select. I

(1) CC1CCCN(CCCCCCCOc2ccc(Cl)cc2)C1 (stereo not drawn)
(2) CCC(C)(C)c1ccc(OCCCN2CCCCC2)cc1
Which gives the smaller inhibition at 10 µM number: 1 or 2 ? Give the label of your selection. 1
(1: 4%, 2: 8%)

(a) CC(C)(C)c1ccc(OCCCCCCN2CCCCCC2)cc1
(b) CCC(C)(C)c1ccc(OCCCCCCCN2CCCCCC2)cc1
Problem: Given the entries a and b , determine which has the lower reported inhibition at 10 µM. Return value: the label identifying the chosen record. a
(a: 19%, b: 38%)
